This section presents compounds with their documented IC50 values.
Target: BRD4 BD1 (Homo sapiens, UniProt O60885)
Test: AlphaScreen binding assay, BRD4 Bromodomain 1

1) CCOC(=O)N1C[C@H](C)N(C(C)=O)c2ccc(-c3cn[nH]c3)cc21 : 1000 to 10000 nM

Problem: Could you tell me which IC50 is on file for CC(=O)N1c2ccc(-c3ccc(C4(O)COC4)cc3)cc2N(C(=O)C2CC2)C[C@@H]1C ?
Result: 100 to 1000 nM

Problem: Could you tell me which IC50 is on file for CC(=O)N1c2ccc(-c3cnc4ccccc4c3)cc2N(C(=O)c2ccco2)C[C@@H]1C ?
Result: 1000 to 10000 nM

Problem: Could you tell me which IC50 is on file for C[C@H]1CN(C(=O)c2ccco2)c2cc(-c3ccc(S(C)(=O)=O)cc3)ccc2N1C(=O)C1CCCC1 ?
Result: > 10000 nM

Problem: Could you tell me which IC50 is on file for CC(=O)N1c2ccccc2N(Cc2ccc(OC(C)C)cc2)C[C@@H]1C ?
Result: > 10000 nM

Problem: Could you tell me which IC50 is on file for CC(=O)N1c2ccc(-c3cc[nH]n3)cc2N(C(=O)c2ccco2)C[C@@H]1C ?
Result: 1000 to 10000 nM

* * *

Molecular target: BRD4 BD1 (Homo sapiens, UniProt O60885)
Assay: AlphaScreen binding assay, BRD4 Bromodomain 1
pIC50: −log10 of the molar value.
This section presents molecules with their documented pIC50 values.

1) CC(=O)N1c2ccc(-c3ccc(S(C)(=O)=O)cc3)cc2N(C(=O)N2CCCC2)C[C@@H]1C [Example I-100] : < 5.00
2) COC(=O)N1c2ccc(-c3cnn(CCC#N)c3)cc2N(C(=O)Oc2ccc(F)cc2)C[C@@H]1C [Example I-1025] : 6.00 to 7.00
3) CC(=O)N1c2cc(Cl)c(-c3cnn(C4CC4)c3)cc2N(C(=O)OC(C)C)C[C@@H]1C [Example I-208] : 5.00 to 6.00
4) CC(=O)N1c2cc(Br)c(-c3cnn(C4CC4)c3)cc2N(C(=O)OC(C)C)C[C@@H]1C [Example I-209] : 5.00 to 6.00
5) CC(=O)N1c2ccccc2N(Cc2cc(C)ccc2C)C[C@@H]1C [Example I-903] : < 5.00
6) CC(=O)N1c2ccc(-c3cnn(C4CS(=O)(=O)C4)c3)cc2N(C(=O)OC2CC(F)(F)C2)C[C@@H]1C [Example I-1] : 6.00 to 7.00
7) CC(=O)N1c2ccc(-c3ccc(S(=O)(=O)CC(=O)N(C)C)cc3)cc2N(C(=O)c2ccco2)C[C@@H]1C [Example I-433] : 6.00 to 7.00
8) CC(=O)N[C@H]1CCN(C(=O)c2ccc(-c3ccc4c(c3)N(C(=O)OC(C)C)C[C@H](C)N4C(C)=O)cc2)C1 [Example I-541] : 6.00 to 7.00

Problem: Could you tell me which pIC50 is on file for CC(=O)N1c2ccc(-c3cnn([C@H]4CCCS(=O)(=O)C4)c3)cc2N(C(=O)OC2CCC2)C[C@@H]1C [Example I-174] ?
Result: > 7.00

Problem: Could you tell me which pIC50 is on file for CC(=O)N1c2ccccc2N(C(=O)CN2CCCCCC2=O)C[C@@H]1C [Example I-764] ?
Result: < 5.00

Problem: Could you tell me which pIC50 is on file for CC(=O)N1c2ccc(-c3cnn(-c4nc5ccccc5o4)c3)cc2N(c2nc3ccccc3o2)C[C@@H]1C [Example I-56] ?
Result: < 5.00

* * *

Molecular target: BRD4 BD1 (Homo sapiens)
Test: AlphaScreen binding assay, BRD4 Bromodomain 1
MEASURED_PARAMETER: IC50

1) CC(=O)N1c2ccc(-c3cnn(CCO)c3)cc2N(C(=O)OCC(F)(F)F)C[C@@H]1C : > 10 µM
2) CC(=O)N1c2ccccc2N(C(=O)c2snnc2C)C[C@@H]1C : > 10 µM
3) CC(=O)N1c2ccc(-c3cnn(C4CC4)c3)cc2N(C(=O)Oc2ccc(F)c(C)c2)C[C@@H]1C : 0.1 to 1 µM
4) COc1cc2c(cc1-c1ccc(S(C)(=O)=O)cc1)N(C(=O)OC(C)C)C[C@H](C)N2C(C)=O : 1 to 10 µM
5) CC(=O)N1c2ccccc2N(Cc2ccc(O)cc2)C[C@@H]1C : > 10 µM

Problem: Lookup: IC50 / BRD4 BD1 (Homo sapiens) / CC(=O)N1c2ccc(-c3cnn(C4CC4)c3)cc2N(C(=O)Oc2ccc(C)nc2C)C[C@@H]1C
Result: 0.1 to 1 µM

Problem: Lookup: IC50 / BRD4 BD1 (Homo sapiens) / CC(=O)N1c2ccc(-c3ccc(S(N)(=O)=O)cc3)cc2N(C(=O)C2CCC2)C[C@@H]1C
Result: > 10 µM

Problem: Lookup: IC50 / BRD4 BD1 (Homo sapiens) / CC(=O)N1c2ccccc2N(C(=O)c2ccco2)C[C@@H]1C
Result: > 10 µM

* * *

This section presents compounds with their documented pIC50 values.
Molecular target: BRD4 BD2 (Homo sapiens)
Construct: made in house
Assay: AlphaScreen binding assay, BRD4 Bromodomain 2
pIC50: −log10 of the molar value.

Solved entries (count: 2):
1. CC(=O)N1c2ccc(-c3cc(F)cc(F)c3)cc2N(C(=O)c2ccco2)C[C@@H]1C : 6.30 to 7.30
2. CC(=O)N1c2ccccc2N(C(=O)c2csc(C)n2)C[C@@H]1C : < 6.30

Problem: Lookup: pIC50 / BRD4 BD2 (Homo sapiens) / COC(=O)N1c2ccc(-c3cnn(C4CC4)c3)cc2N(C(=O)Oc2ccccn2)C[C@@H]1C
Result: > 7.30

Problem: Lookup: pIC50 / BRD4 BD2 (Homo sapiens) / CC(=O)N1c2ccc(-c3ccc(S(=O)(=O)NCCO)cc3)cc2N(C(=O)OC2CCOCC2)C[C@@H]1C
Result: 6.30 to 7.30

Problem: Lookup: pIC50 / BRD4 BD2 (Homo sapiens) / CC(=O)N1c2ccc(-c3cnn(C4CC4)c3)cc2N(C(=O)OCC(F)(F)F)C[C@@H]1C
Result: 6.30 to 7.30

Problem: Lookup: pIC50 / BRD4 BD2 (Homo sapiens) / CC(=O)N1c2ccc(-c3cnn(Cc4cccnc4)c3)cc2N(C(=O)C2CC2)C[C@@H]1C
Result: > 7.30

Problem: Lookup: pIC50 / BRD4 BD2 (Homo sapiens) / CC(=O)N1c2ccc(-c3cnn(C4CCOCC4)c3)cc2N(C(=O)OC2CCOCC2)C[C@@H]1C
Result: 6.30 to 7.30

* * *

This section presents compounds with their documented pIC50 values.
Target: BRD4 BD1 (Homo sapiens, UniProt O60885)
Experiment: AlphaScreen binding assay, BRD4 Bromodomain 1
pIC50: −log10 of the molar value.

1. COC(=O)N1c2ccc(-c3cn(C)nn3)cc2N(C(=O)C2CC2)C[C@@H]1C [Example I-464] : 5.00 to 6.00
2. CC(=O)N1c2ccc(-c3ccc(C(=O)N(C)CC(=O)N(C)C)cc3)cc2N(C(=O)OC(C)C)C[C@@H]1C [Example I-550] : > 7.00
3. CC(=O)N1c2ccccc2N(Cc2cc(C)nn2C)C[C@@H]1C [Example I-905] : < 5.00

Problem: Could you tell me which pIC50 is on file for CC(=O)N1c2ccc(-c3cnn(CC4CC4(F)F)c3)cc2N(C(=O)OC(C)C)C[C@@H]1C (some centres unmarked) [Example I-678] ?
Result: 6.00 to 7.00

Problem: Could you tell me which pIC50 is on file for CC(C)OC(=O)N1C[C@H](C)N(C(=O)C2CC2)c2ccc(-c3cnn(CC(F)(F)F)c3)cc21 [Example I-619] ?
Result: 6.00 to 7.00

Problem: Could you tell me which pIC50 is on file for CC(=O)N1c2ccc(-c3cnn(C4CN[C@H]4C)c3)cc2N(C(=O)OC2CCC2)C[C@@H]1C (some centres unmarked) [Example I-178] ?
Result: 6.00 to 7.00

Problem: Could you tell me which pIC50 is on file for CC(=O)N1c2ccccc2N(Cc2ccc(OCCN(C)C)cc2)C[C@@H]1C [Example I-907] ?
Result: < 5.00

Problem: Could you tell me which pIC50 is on file for CC(=O)N1c2ccc(-c3cnn(C4COC4)c3)cc2N(C(=O)[C@@H]2CC2(Cl)Cl)C[C@@H]1C (single isomer, unassigned) [Example I-112] ?
Result: 5.00 to 6.00

Problem: Could you tell me which pIC50 is on file for CC(=O)N1c2ccc(-c3c(C)noc3C)cc2N(C(=O)c2ccco2)C[C@@H]1C [Example I-816] ?
Result: < 5.00

Problem: Could you tell me which pIC50 is on file for CC(=O)N1c2ccc(-c3cnn(C4CC4)c3)cc2N(C(=O)Oc2ccc(Cl)cc2Cl)C[C@@H]1C [Example I-1193] ?
Result: 5.00 to 6.00

Problem: Could you tell me which pIC50 is on file for CC(=O)N1c2ccc(-c3cnn(Cc4noc(C)n4)c3)cc2N(C(=O)C2CC2)C[C@@H]1C [Example I-668] ?
Result: 6.00 to 7.00
